Target: human 5-HT1A receptor subtype (Homo sapiens, UniProt P08908)
Construct: expressed in transfected cells
Sequence (P08908 whole entry): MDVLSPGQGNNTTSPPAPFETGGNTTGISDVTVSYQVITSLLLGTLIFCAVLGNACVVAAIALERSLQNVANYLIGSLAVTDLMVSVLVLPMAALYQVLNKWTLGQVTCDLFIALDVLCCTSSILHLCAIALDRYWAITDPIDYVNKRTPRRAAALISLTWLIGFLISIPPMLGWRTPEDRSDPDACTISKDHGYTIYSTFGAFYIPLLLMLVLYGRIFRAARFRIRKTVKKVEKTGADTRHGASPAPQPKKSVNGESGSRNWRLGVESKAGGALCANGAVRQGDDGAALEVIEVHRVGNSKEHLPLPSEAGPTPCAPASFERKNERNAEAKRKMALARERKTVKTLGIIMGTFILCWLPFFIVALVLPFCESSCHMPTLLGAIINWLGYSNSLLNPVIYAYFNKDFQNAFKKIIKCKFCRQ
Experiment: 5-HT1A receptor binding, [3H]8-OH-DPAT, CHO cell membranes
Details: concentration not given
METRIC: 5-HT1A, value given as % (%)
Write the value in % as a bare number.

Below: 5 molecules and their reported 5-HT1A, value given as %.
1. Brc1ccc2[nH]cc([C@H]3CC[C@H](N4CCN(c5cccc6[nH]ccc56)CC4)CC3)c2c1
78.7
2. Cn1ccc2c(N3CCN([C@H]4CC[C@@H](c5cn(C)c6cc(F)ccc65)CC4)CC3)cccc21
0
3. CCCn1cc([C@H]2CC[C@H](N3CCN(c4cccc5[nH]ccc45)CC3)CC2)c2cc(C#N)ccc21 [Example 14b]
0
4. N#Cc1ccc2c(c1)c([C@H]1CC[C@@H](N3CCN(c4cccc5[nH]ccc45)CC3)CC1)cn2Cc1ccccc1 [Example 16a]
0
5. Cn1ccc2c(N3CCN([C@H]4CC[C@@H](c5cn(C)c6ccc(C#N)cc65)CC4)CC3)cccc21
0

// 5-HT1A, value given as % lookup, key: Brc1ccc2[nH]cc([C@H]3CC[C@@H](N4CCN(c5cccc6[nH]ccc56)CC4)CC3)c2c1 0

----------
Counter-ions that a name gives are not always drawn.
Listed here are compounds together with their documented melting point.

Below: 3 compounds and their reported melting point.
1) COc1cc(N2CCN([C@H]3CC[C@@H](c4cn(C)c5ccc(C#N)cc54)CC3)CC2)c2ncccc2c1Cl [Example 52e]
231 °C
2) CN(C)C(=O)c1cc(N2CCN([C@H]3CC[C@@H](c4cn(C)c5ccc(C#N)cc54)CC3)CC2)c2ncccc2c1 (as salt: oxalate) [Example 77a]
163 to 165 °C
3) COc1cc(N2CCN([C@H]3CC[C@@H](c4cn(C)c5ccc(C#N)cc54)CC3)CC2)c2ncccc2c1C [Example 52a]
227 to 228 °C

// melting point lookup, key: COc1ccccc1C1CCN([C@H]2CC[C@@H](c3c[nH]c4ccc(F)cc43)CC2)CC1 (as salt: HCl) [Example 19a] 245 to 250 °C

// melting point lookup, key: COc1cc(N2CCN([C@H]3CC[C@H](c4cn(C)c5ccc(C#N)cc54)CC3)CC2)c2ncccc2c1Cl [Example 52f] 215 to 216 °C

// melting point lookup, key: Brc1ccc2[nH]cc([C@H]3CC[C@@H](N4CCN(c5cccc6[nH]ccc56)CC4)CC3)c2c1 (as salt: HCl) 276 °C

// melting point lookup, key: Cn1cc([C@H]2CC[C@@H](N3CCN(c4cc(C=O)cc5cccnc45)CC3)CC2)c2cc(C#N)ccc21 (as salt: oxalate) 172 to 174 °C

// melting point lookup, key: COc1cc(N2CCN([C@H]3CC[C@H](c4cn(C)c5ccc(C#N)cc54)CC3)CC2)c2nccnc2c1 [Example 65b] 230 to 233 °C

----------
Structures can show the parent of a compound that is named as a salt.
Listed here are molecules together with their documented melting point.

1) N#Cc1ccc2[nH]cc([C@H]3CC[C@@H](N4CCN(c5cccc6c5OCCO6)CC4)CC3)c2c1 (as salt: HCl) [Example 26a]
300 °C
2) COc1ccc2[nH]cc([C@H]3CC[C@@H](N4CCN(c5cccc6[nH]ccc56)CC4)CC3)c2c1 (as salt: HCl) (hydrate or solvate) [Example 8a]
283 to 285 °C

// melting point lookup, key: COc1cc(N2CCN([C@H]3CC[C@@H](c4c[nH]c5cc(F)ccc54)CC3)CC2)c2ncccc2c1 [Example 80] 239 to 243 °C

// melting point lookup, key: COc1cc(N2CCN([C@H]3CC[C@@H](c4c[nH]c5ccc(C(F)(F)F)cc54)CC3)CC2)c2ncccc2c1 [Example 82] 143 to 147 °C
